target: Factor X (FX), P00742
Sequence (P00742 whole entry, looked up): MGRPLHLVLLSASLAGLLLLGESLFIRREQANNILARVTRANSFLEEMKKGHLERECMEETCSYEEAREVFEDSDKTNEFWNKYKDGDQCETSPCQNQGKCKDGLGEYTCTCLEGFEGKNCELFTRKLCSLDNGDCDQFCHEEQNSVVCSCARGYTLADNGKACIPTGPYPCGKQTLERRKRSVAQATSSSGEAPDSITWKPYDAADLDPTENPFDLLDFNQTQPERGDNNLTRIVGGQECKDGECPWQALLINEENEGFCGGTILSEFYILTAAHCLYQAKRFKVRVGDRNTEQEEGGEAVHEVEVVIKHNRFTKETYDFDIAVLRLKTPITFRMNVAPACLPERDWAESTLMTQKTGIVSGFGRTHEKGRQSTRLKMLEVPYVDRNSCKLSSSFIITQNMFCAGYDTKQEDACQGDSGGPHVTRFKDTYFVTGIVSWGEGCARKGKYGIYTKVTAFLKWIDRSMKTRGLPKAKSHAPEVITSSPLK
Rule: kcat below 5 s⁻¹ gives class 1. Equal to or above 5 s⁻¹ gives class 0.

Previously resolved entries follow.
Protein | Assigned Class
FIXa variant I251S/R318Y/R338E/R403E/E410N (protein) chain 1: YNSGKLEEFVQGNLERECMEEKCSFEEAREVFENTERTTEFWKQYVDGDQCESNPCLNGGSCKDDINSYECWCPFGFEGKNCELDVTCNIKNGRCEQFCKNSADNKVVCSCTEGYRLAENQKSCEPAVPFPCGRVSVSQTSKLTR chain 2: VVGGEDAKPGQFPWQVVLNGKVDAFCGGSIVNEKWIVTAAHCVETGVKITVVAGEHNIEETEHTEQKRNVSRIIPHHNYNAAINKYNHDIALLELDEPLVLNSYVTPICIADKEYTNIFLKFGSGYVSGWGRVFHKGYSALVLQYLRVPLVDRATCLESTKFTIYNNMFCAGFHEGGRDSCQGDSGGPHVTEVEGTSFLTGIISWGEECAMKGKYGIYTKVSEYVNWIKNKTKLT | class 1
FIXa variant K247N/N249S/R318Y/R338E/R403E/E410N (protein) chain 1: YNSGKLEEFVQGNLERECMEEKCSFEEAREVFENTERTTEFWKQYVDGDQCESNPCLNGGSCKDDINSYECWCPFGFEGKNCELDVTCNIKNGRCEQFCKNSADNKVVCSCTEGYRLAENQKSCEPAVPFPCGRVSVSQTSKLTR chain 2: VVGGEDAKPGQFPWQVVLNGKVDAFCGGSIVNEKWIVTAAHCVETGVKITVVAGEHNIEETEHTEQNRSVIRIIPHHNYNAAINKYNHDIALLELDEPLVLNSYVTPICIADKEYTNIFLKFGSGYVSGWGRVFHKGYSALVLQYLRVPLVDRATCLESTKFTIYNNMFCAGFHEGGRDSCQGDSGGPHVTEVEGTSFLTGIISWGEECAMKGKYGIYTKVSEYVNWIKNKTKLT | class 0
FIXa-Y155F/I251S/R318Y/R338E/R403E/E410N (protein) chain 1: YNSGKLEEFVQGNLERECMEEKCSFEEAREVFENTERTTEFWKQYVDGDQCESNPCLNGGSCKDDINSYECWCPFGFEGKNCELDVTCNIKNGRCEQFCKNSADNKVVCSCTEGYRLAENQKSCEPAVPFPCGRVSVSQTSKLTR chain 2: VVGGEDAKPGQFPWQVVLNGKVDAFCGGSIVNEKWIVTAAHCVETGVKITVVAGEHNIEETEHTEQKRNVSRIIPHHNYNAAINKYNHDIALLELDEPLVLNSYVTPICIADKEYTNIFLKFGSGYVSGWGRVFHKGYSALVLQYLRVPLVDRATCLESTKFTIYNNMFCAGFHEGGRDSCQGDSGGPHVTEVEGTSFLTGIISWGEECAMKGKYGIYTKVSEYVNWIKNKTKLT | class 0
FIXa-A103N/N105S/K247N/N249S/R318Y/R338E/R403E/E410N (protein) chain 1: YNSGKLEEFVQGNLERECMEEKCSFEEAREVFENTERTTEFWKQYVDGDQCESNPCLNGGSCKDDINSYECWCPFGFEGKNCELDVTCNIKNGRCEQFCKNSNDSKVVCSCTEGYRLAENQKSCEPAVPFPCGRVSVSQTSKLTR chain 2: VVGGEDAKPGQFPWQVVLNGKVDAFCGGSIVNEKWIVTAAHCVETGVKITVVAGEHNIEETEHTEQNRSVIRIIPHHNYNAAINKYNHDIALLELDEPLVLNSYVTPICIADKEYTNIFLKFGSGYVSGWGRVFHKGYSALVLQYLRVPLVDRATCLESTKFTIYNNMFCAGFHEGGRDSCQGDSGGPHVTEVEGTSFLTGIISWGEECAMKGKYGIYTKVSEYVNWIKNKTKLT | class 1
FIXa variant Y155F/K247N/N249S/R318Y/R338E/E410N (protein) chain 1: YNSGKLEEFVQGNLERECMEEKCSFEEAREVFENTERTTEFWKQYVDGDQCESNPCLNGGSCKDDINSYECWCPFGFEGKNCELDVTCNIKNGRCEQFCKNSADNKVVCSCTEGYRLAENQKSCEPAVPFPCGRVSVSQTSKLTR chain 2: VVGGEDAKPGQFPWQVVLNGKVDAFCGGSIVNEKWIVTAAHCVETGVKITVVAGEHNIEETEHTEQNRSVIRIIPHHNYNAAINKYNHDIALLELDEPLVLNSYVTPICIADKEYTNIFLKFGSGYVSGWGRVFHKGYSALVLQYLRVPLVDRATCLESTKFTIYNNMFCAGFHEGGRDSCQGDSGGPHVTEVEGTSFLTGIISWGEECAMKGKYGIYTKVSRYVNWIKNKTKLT | class 1

// switching to the query protein
Q: State whether 5 s⁻¹ exceeds kcat recorded for FIXa-Y155F/R318Y/R403E/E410N (protein) chain 1: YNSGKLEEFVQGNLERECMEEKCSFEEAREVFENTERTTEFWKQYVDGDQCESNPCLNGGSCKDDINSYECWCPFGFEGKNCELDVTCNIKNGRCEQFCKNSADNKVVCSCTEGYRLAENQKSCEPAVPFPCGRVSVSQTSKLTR chain 2: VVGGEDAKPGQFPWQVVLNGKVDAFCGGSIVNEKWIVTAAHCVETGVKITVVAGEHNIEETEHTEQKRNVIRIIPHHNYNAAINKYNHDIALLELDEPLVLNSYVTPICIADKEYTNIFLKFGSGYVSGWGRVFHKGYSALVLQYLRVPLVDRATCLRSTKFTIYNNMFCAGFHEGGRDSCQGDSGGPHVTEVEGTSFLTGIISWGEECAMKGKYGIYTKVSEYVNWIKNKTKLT .
A: class 1

meta.source: patent US20210238260
